- MEASUREMENT TARGET: Transitional endoplasmic reticulum ATPase (Homo sapiens)
- Sequence (P55072 whole entry, the tested form may be a part): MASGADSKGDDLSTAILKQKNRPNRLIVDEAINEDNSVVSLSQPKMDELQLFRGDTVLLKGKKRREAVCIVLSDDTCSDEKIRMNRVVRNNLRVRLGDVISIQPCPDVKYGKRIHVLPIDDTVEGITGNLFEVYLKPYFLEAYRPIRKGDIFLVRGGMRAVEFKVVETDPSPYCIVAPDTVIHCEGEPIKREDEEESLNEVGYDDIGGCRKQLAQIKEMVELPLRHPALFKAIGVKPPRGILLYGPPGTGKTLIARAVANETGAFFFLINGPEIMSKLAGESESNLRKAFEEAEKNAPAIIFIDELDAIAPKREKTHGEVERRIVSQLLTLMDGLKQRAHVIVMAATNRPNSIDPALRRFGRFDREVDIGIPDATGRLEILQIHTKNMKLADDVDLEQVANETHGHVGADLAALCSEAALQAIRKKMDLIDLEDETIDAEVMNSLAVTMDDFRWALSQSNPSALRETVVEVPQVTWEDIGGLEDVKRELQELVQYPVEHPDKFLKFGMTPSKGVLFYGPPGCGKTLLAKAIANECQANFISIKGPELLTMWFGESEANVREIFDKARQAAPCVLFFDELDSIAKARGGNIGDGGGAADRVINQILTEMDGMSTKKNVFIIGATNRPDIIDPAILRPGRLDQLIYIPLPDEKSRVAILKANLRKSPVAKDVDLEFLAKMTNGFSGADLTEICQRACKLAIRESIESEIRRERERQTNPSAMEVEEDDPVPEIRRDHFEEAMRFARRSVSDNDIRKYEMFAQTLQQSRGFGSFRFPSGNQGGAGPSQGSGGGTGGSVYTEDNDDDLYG
- TEST DESCRIPTION: Competitive inhibition of recombinant human full length Avi-tagged p97 (1 to 806 residues) expressed in Escherichia coli Rosetta 2(DE3) using 20 uM ATP as substrate incubated for 90 mins by ADP-glo assay based Michaelis-Menten plot analysis
METRIC: pKi
pKi here: minus log base 10 of the concentration, concentration in moles per litre.

**Query** // pKi lookup, key: Cc1cc2cc(NC(=O)c3cccnc3N)ccc2[nH]1
**Result** 5.46

* * *

- TEST DESCRIPTION: Metabolic stability in mouse microsomes assessed as half life
- Assay type: ADME, Microsome
METRIC: half-life (min)
Report the value in min with no unit label.

**Query** GET /values?readout=half-life&item= Cc1cc2cc(NC(=O)c3cccnc3N)ccc2[nH]1
**Result** 5

* * *

IC50 listing for selected molecules.
- MEASUREMENT TARGET: Transitional endoplasmic reticulum ATPase (Homo sapiens)
- TEST DESCRIPTION: Inhibition of recombinant human full length Avi-tagged p97 (1 to 806 residues) expressed in Escherichia coli Rosetta 2(DE3) using 20 uM ATP as substrate incubated for 90 mins by ADP-glo assay

Recorded results for 5 molecules are shown here.
SMILES STRUCTURE	IC50
Cc1cc2cc(NC(=O)c3cccnc3N)ccc2[nH]1	2.6 µM
Cc1cc2cc(NC(=O)c3cnccn3)ccc2[nH]1	> 50 µM
Cc1cc2cc(NC(=O)c3nccnc3N)ccc2[nH]1	11.5 µM
Nc1nccnc1C(=O)Nc1ccc2[nH]ccc2c1	> 50 µM
Cc1cc2cc(NC(=O)c3ncccc3N)ccc2[nH]1	> 50 µM

Please look at the following molecule next.
**Query** Query for Transitional endoplasmic reticulum ATPase (Homo sapiens): what IC50 does the record show for Cc1[nH]c2ccc(NC(=O)c3nccnc3N)cc2c1C ?
**Result** > 50 µM
